Where do the numbers come from? From patent US20230141603A1.

Kindly state LogSel for each of the entries shown.
# Target: h-GABAA α1β3γ2 (Homo sapiens, UniProt P14867+P18507)
# Construct: expressed in transfected cells; host or cells: HEK293F cells, membranes
# Test description: Radioligand binding assay, [3H]Flumazenil competition, HEK293F membranes
# Test context: Table 1; Log[Ki α1β3γ2 (nM)/Ki α2β2γ1 (nM)]
Give bare numbers.

Please review the entries below; each comes with its answer.
Cc1ccc2c(c1Cl)C(c1c(F)cccc1F)=NCc1n[nH]c(=O)n1-2    1.40
Fc1cccnc1C1=NCc2nnc(-c3cccnn3)n2-c2ccc(Br)c(Cl)c21    1.89

Each of the following entries comes with a recorded value; kindly state LogSel for each.
1. Fc1cccnc1C1=NCc2nnc(-c3ccncn3)n2-c2ccc(Cl)c(Cl)c21
2. O=c1[nH]nc2n1-c1ccc(Br)c(Cl)c1C(c1c(F)cccc1F)=NC2
3. Fc1cccc(F)c1C1=NCc2nncn2-c2ccc(Cl)c(Cl)c21
4. Cc1nnc2n1-c1ccc(C(C)(F)F)c(Cl)c1C(c1c(F)cccc1F)=NC2
5. Fc1cccc(F)c1C1=NCc2nncn2-c2ccc(Br)c(Cl)c21

1. 1.97
2. 1.73
3. 1.46
4. 1.87
5. 1.38

For the compound COc1ccc2c(c1Cl)C(c1c(F)cccc1F)=NCc1nnc(-c3cccnn3)n1-2 , report LogSel.
1.56

----------
Kindly state γ2/γ1 Selectivity Ratio for each of the entries shown.
# Target: h-GABAA α1β3γ2 (Homo sapiens, UniProt P14867+P18507)
# Construct: expressed in transfected cells; host or cells: HEK293F cells, membranes
# Test description: Radioligand binding assay, [3H]Flumazenil competition, HEK293F membranes
# Test context: Table 1; Ki α1β3γ2 (nM)/Ki α2β2γ1 (nM)
Numbers only.

Please review the entries below; each comes with its answer.
Fc1cccc(F)c1C1=NCc2nnc(C3CCOCC3)n2-c2ccc(Cl)c(Cl)c21    14.1
Cc1nnc2n1-c1ccc(Br)c(Cl)c1C(c1ncccc1F)=NC2    25.0
Cc1nnc2n1-c1ccc(C(F)F)c(Cl)c1C(c1c(F)cccc1F)=NC2    24.2
CC(F)(F)c1ccc2c(c1Cl)C(c1c(F)cccc1F)=NCc1nncn1-2    34.5

Each of the following entries comes with a recorded value; kindly state γ2/γ1 Selectivity Ratio for each.
1. Cc1ccc2c(c1Cl)C(c1c(F)cccc1F)=NCc1nnc(-c3cccnn3)n1-2
2. Cc1nnc2n1-c1ccc(C3CC3)c(Cl)c1C(c1c(F)cccc1F)=NC2
3. Fc1ccccc1C1=NCc2nncn2-c2ccc(Br)c(Cl)c21
4. Cc1ccc2c(c1Cl)C(c1c(F)cccc1F)=NCc1nnc(C)n1-2
5. Fc1cccnc1C1=NCc2nnc(-c3cccnn3)n2-c2ccc(C(F)(F)F)c(Cl)c21

114.1
10.3
12.1
12.2
342.1

----------
# Target: h-GABAA α1β3γ2 (Homo sapiens, UniProt P14867+P18507)
# Construct: expressed in transfected cells; host or cells: HEK293F cells, membranes
# Test description: Radioligand binding assay, [3H]Flumazenil competition, HEK293F membranes
# Test context: Table 1; Log[Ki α1β3γ2 (nM)/Ki α2β2γ1 (nM)]
Kindly state LogSel for each of the entries shown.
Answers are plain numbers.

Please review the entries below; each comes with its answer.
Fc1cccnc1C1=NCc2nnc(-c3cccnn3)n2-c2ccc(Cl)c(Cl)c21 [Example 54]    1.84
Fc1cccc(F)c1C1=NCc2nnc(-c3cccnn3)n2-c2ccc(I)c(Cl)c21 [Example 39]    1.93
Fc1cccc(F)c1C1=NCc2nncn2-c2ccc(C(F)F)c(Cl)c21 [Example 23]    1.34

For the compound Cn1cc(-c2nnc3n2-c2ccc(Cl)c(Cl)c2C(c2ncccc2F)=NC3)cn1 [Example 58] , report LogSel.
1.60
